The measurements presented in this section are drawn from PubChem BioAssay AID1259407.

System: CCRIS mutagenicity, Ames/micronucleus/aberration tests
protocol_notes: CCRIS mutagenicity studies
condition_info: Test System: AMES SALMONELLA TYPHIMURIUM; Strain/Indicator: TA98; Metabolic Activation: HAMSTER, LIVER, S-9, AROCLOR 1254 (10%); Method: PREINCUBATION
The source made the active and inactive calls. The rule behind the calls is not given here.
The reply should be one of these categories: yes = active, no = inactive

Example entries and their recorded answers appear below.
* C/C=C1\CC2C=CC1C2 (configuration not stated) | no
* Nc1cc(Cl)ccc1Cl | no
* O=C1CCC(=O)O1 | no
* CN(C)CCOC(C)(c1ccccc1)c1ccccn1 (configuration not stated) | no
* Cc1cccc(C)c1N | no

# lookup: test call for NCCCN
no

Let us now turn to Cc1cc(Cl)ccc1O
no

Let us now turn to C=C(C)C(=O)OCCC
no

Let us now turn to O=c1c2ccc3c4c(ccc(c24)c2nc4ccccc4n12)c(=O)n1c2ccccc2nc31
yes

Let us now turn to c1ccc2c(c1)Nc1ccccc1S2
no

Let us now turn to CCOC(=O)c1ccccc1N
no

Let us now turn to COc1cc([N+](=O)[O-])ccc1N=NC(C(C)=O)C(=O)Nc1ccccc1OC (configuration not stated)
no

Let us now turn to CCOC(=O)c1ccccc1C(=O)OCC
no

---

Test system: CCRIS mutagenicity, Ames/micronucleus/aberration tests
protocol_notes: CCRIS mutagenicity studies
condition_info: Test System: AMES SALMONELLA TYPHIMURIUM; Strain/Indicator: TA100; Metabolic Activation: RAT LIVER S-9, PHENOBARBITAL AND 5,6-BENZOFLAVONE; Method: PREINCUBATION
Calls of active or inactive are those of the source. How the calls were made is not given here.
The reply should be one of these categories: active, inactive

Example entries and their recorded answers appear below.
* c1ccc2ncccc2c1 | active
* Fc1ccc2cccnc2c1F | active
* CN(c1nccc(=O)[nH]1)C1CCN(c2nc3ccccc3n2Cc2ccc(F)cc2)CC1 | inactive

Here is the next item to consider.
# lookup: test call for Nc1ccc2ncsc2c1
inactive

---

System: CCRIS mutagenicity, Ames/micronucleus/aberration tests
protocol_notes: CCRIS mutagenicity studies
condition_info: Test System: AMES SALMONELLA TYPHIMURIUM; Strain/Indicator: TA100; Metabolic Activation: NONE; Method: STANDARD PLATE
Description: The CCRIS database contains chemical records with carcinogenicity, mutagenicity, tumor promotion, and tumor inhibition test results. It was developed by the National Cancer Institute (NCI). Data are derived from studies cited in primary journals, current awareness tools, NCI reports, and other sources. Test results have been reviewed by experts in carcinogenesis and mutagenesis. CCRIS provides historical information from the years 1985 - 2011. It is no longer updated. […]
The source made the active and inactive calls. No rule for the calls is given here.
The reply should be one of these categories: Yes for active, No for inactive

- CC(C)(Oc1ccc(C(=O)c2ccc(Cl)cc2)cc1)C(=O)O: No
- O=S(=O)(O)c1cccc2cccnc12: No
- CC(=O)O[C@@H]1C(=O)O[C@H]2[C@@H]1OC(=O)[C@@H]2OC(C)=O: No
- CNC(=O)Oc1ccccc1OC(C)C: No
- Cc1ccccc1OP(=O)(Oc1ccccc1C)Oc1ccccc1C: No

# lookup: test call for ClC1C(Cl)C(Cl)C(Cl)C(Cl)C1Cl (stereo not drawn)
No

Let us now turn to Nc1snc2c(Cl)cc(Cl)cc12
No

Let us now turn to CCOC(=O)c1ccccc1C(=O)OCC
Yes

Let us now turn to Cc1ccc(C=O)o1
No

---

Tested on: CCRIS mutagenicity, Ames/micronucleus/aberration tests
protocol_notes: CCRIS mutagenicity studies
condition_info: Test System: AMES SALMONELLA TYPHIMURIUM; Strain/Indicator: TA98; Metabolic Activation: NONE; Method: PREINCUBATION
Activity calls are given as the source filed them. No rule for the calls is given here.
property: mutagenic call

Solved entries:
- CNc1ccc2ncc(C)nc2c1C: inactive; negative
- O=c1oc2c(O)c(O)cc3c(=O)oc4c(O)c(O)cc1c4c23: inactive; negative
- CCCNC(=O)NS(=O)(=O)c1ccc(Cl)cc1: inactive; negative
- CN(C)CCCN: inactive; negative

// mutagenic call lookup, key: CC1=CC(=O)C(C(C)C)=CC1=O
inactive; negative

Let us now turn to Nc1ccc(-c2ccc(N)cc2)cc1
inactive; negative

Let us now turn to O=C=Nc1cccc2c(N=C=O)cccc12
inactive; negative

---

Test system: CCRIS mutagenicity, Ames/micronucleus/aberration tests
protocol_notes: CCRIS mutagenicity studies
condition_info: Test System: AMES SALMONELLA TYPHIMURIUM; Strain/Indicator: TA98; Metabolic Activation: NONE; Method: STANDARD PLATE
Calls of active or inactive are those of the source. The rule behind the calls is not given here.
property: mutagenic call

• O=C1C(c2[nH]c3ccccc3c2O)=Nc2ccccc21 = inactive; negative
• O=c1[nH]c2ccccc2n1C1CCN(CCCC(c2ccc(F)cc2)c2ccc(F)cc2)CC1 = inactive; negative
• CCCOc1cc(N=Nc2ccccc2)ccc1N=Nc1c(S(=O)(=O)O)cc2ccc(N)cc2c1O = inactive; negative
• O=c1[nH]c(=O)n([C@H]2C[C@H](O)[C@@H](CO)O2)cc1CO = inactive; negative

Value wanted: mutagenic call (CCRIS mutagenicity, Ames/micronucleus/aberration tests) of entry CCN(CCCl)c1ccc(CCCNc2c3ccccc3nc3ccccc23)cc1
active; positive

Let us now turn to CC(C)(Cl)Cl
inactive; negative

Let us now turn to Cc1cc(O)ccc1Cl
inactive; negative

Let us now turn to C=CCC1OC(=O)C=CC1O (stereo unspecified)
inactive; negative

Let us now turn to COc1cccc2c(NCCCNCCCl)c3ccccc3nc12
active; positive

Let us now turn to C[C@]12CC[C@H](OC(=O)Cc3ccc(N(CCCl)CCCl)cc3)C[C@@H]1CC[C@@H]1[C@@H]2CC[C@]2(C)NC(=O)CC[C@@H]12
inactive; negative

Let us now turn to CCCCC(CC)COC(=O)c1ccccc1C(=O)O (stereo unspecified)
inactive; negative

---

System: CCRIS mutagenicity, Ames/micronucleus/aberration tests
protocol_notes: CCRIS mutagenicity studies
condition_info: Test System: AMES SALMONELLA TYPHIMURIUM; Strain/Indicator: TA100; Metabolic Activation: NONE; Method: PREINCUBATION
The source made the active and inactive calls. No rule for the calls is given here.
The reply should be one of these categories: 1 (yes) (active), 0 (no) (inactive)

* COC(=O)c1c2c(c3ccccc3c1O)OC(C)(C)C=C2 | 1 (yes)
* Nc1ccc(-c2ccc(N)cc2)cc1 | 0 (no)
* Cc1c(N)nc(C(CC(N)=O)NCC(N)C(N)=O)nc1C(=O)NC(C(=O)NC(C)C(O)C(C)C(=O)NC(C(=O)NCCc1nc(-c2nc(C(=O)NCCC[S+](C)C)cs2)cs1)C(C)O)C(O[C@@H]1O[C@@H](CO)[C@@H](O)[C@H](O)[C@@H]1O[C@H]1O[C@H](CO)[C@@H](O)[C@H](OC(N)=O)[C@@H]1O)c1cnc[nH]1 (stereo partly specified) | 0 (no)
* Cc1cc(C)n(-c2nnc(NN)c3c2[nH]c2ccccc23)n1 | 0 (no)

# lookup: test call for C1OCOCO1
0 (no)

Let us now turn to C=CC(=O)CC
1 (yes)

Let us now turn to O=C(O)/C=C/C(=O)O
0 (no)

Let us now turn to OCCOCCO
0 (no)

Let us now turn to CC1=CC(=O)C(C(C)C)=CC1=O
0 (no)

Let us now turn to Cc1c([N+](=O)[O-])c2ccccc2c2ccc3ccccc3c12
0 (no)

Let us now turn to O=NN(CCO)CC(=O)O
1 (yes)

---

System: CCRIS mutagenicity, Ames/micronucleus/aberration tests
protocol_notes: CCRIS mutagenicity studies
condition_info: Test System: AMES SALMONELLA TYPHIMURIUM; Strain/Indicator: TA1537; Metabolic Activation: NONE; Method: PREINCUBATION
Activity calls are given as the source filed them. How the calls were made is not given here.
The reply should be one of these categories: active, inactive

Example entries and their recorded answers appear below.
- Cc1ccccc1Br: inactive
- O=C1OC(=O)c2cc([N+](=O)[O-])ccc21: active
- CCc1ccccc1: inactive
- C=C(C)C(=O)OCCCCCCCC: inactive

Here is the next item to consider.
# lookup: test call for C=C(C)C(=O)OCCC
inactive

---

Test system: CCRIS mutagenicity, Ames/micronucleus/aberration tests
protocol_notes: CCRIS mutagenicity studies
condition_info: Test System: AMES SALMONELLA TYPHIMURIUM; Strain/Indicator: TA100; Metabolic Activation: NONE; Method: PREINCUBATION
Activity calls are given as the source filed them. The rule behind the calls is not given here.
The reply should be one of these categories: active, inactive

Example entries and their recorded answers appear below.
- Brc1ccc(-c2ccccc2)cc1: inactive
- COc1nncc2ccccc12: inactive
- O=c1c2ccc3c4c(ccc(c24)c2nc4ccccc4n12)c(=O)n1c2ccccc2nc31: inactive
- Nc1ccc(N=Nc2ccc3c(c2)C(=O)/C(=N/Nc2ccc(Nc4ccc(N/N=C5/C(=O)c6cc(N=Nc7ccc(N)cc7N)ccc6C=C5S(=O)(=O)O)cc4S(=O)(=O)O)cc2)C(S(=O)(=O)O)=C3)c(N)c1: inactive
- S=C1NCCN1: inactive

# lookup: test call for OCC(Cl)CCl (stereo not drawn)
active

Let us now turn to O=C(OOC(=O)c1ccccc1)c1ccccc1
inactive

Let us now turn to O=C1OC(=O)c2cc([N+](=O)[O-])ccc21
inactive
